- Tested on: CCRF-CEM leukemia
- assay.notes: NCI-60 one-dose screen, 48 h (100 = growth as untreated, 0 = no growth, -100 = all killed)
- experimental.setup: 10 µM unless noted
The panel holds about 83,000 compounds, 20% with a hit somewhere; the sample as a whole holds those more often.
measured.property: growth (%)

molecule=COc1ccc(S(=O)(=O)NCCNc2nccc(-c3c(-c4cccc([N+](=O)[O-])c4)nc4sccn34)n2)cc1 recorded_result=75.2
molecule=COc1cc(-c2nc3ccccc3s2)ccc1NC(=O)COc1ccc(Cl)cc1 recorded_result=98.5
molecule=O=C1c2cc3c(cc2-c2c1c1cc(Cl)c(Cl)cc1c(=O)n2CCCn1ccnc1)OCO3 recorded_result=2.94
molecule=NCc1cn2cc(Cl)sc2n1 recorded_result=103
molecule=COc1ccc2nc3cc(Cl)ccc3c(N3CCN(c4ccnc(N5CCN(C)CC5)n4)CC3)c2c1 recorded_result=-27.9

----------
- System: CAKI-1 renal
- assay.notes: NCI-60 one-dose screen, 48 h (100 = growth as untreated, 0 = no growth, -100 = all killed)
- experimental.setup: 10 µM unless noted
This is part of a sample that, as a whole, favours compounds with a hit. Of some 83,000 tested, about 20% had one in any assay.
measured.property: growth (%)

compound="C=C1CC2(OC1=O)C(=O)N(CCCCCCCN1C(=O)C3(CC(=C)C(=O)O3)c3ccccc31)c1ccccc12 (stereo not given)" target_under_test="CAKI-1 renal" recorded_result=40.3
compound=Cc1ccc(NC(=O)c2sc3nc4c(cc3c2N)C(=O)CCC4)cc1C target_under_test="CAKI-1 renal" recorded_result=35.7
compound=COc1ccc(CN2C(=O)/C(=C\c3cc(OC)c(OC)c(OC)c3)c3cc(OC)ccc32)cc1 target_under_test="CAKI-1 renal" recorded_result=-2.31
compound=CNc1cc2nc3cc(NC)c(C)cc3cc2cc1C target_under_test="CAKI-1 renal" recorded_result=7.63
compound=COc1cc(-c2nc3ccccc3s2)ccc1NC(=O)COc1ccc(Cl)cc1 target_under_test="CAKI-1 renal" recorded_result=6.38
compound="O=C(NC(Cc1ccccc1)C(=O)CCl)OCc1ccccc1 (stereo not given)" target_under_test="CAKI-1 renal" recorded_result=48.2
compound=O=[N+]([O-])c1cccc(-c2nc3sccn3c2-c2ccnc(NCCCNS(=O)(=O)c3cccc(F)c3)n2)c1 target_under_test="CAKI-1 renal" recorded_result=10
compound=COc1ccc(/C=C2\N=C3SC=C(N)N3C2=O)cc1 target_under_test="CAKI-1 renal" recorded_result=-33
compound="CN1C2CCC1/C(=C\\c1ccc(Cl)cc1)C1=C2[C@@H](c2ccc(Cl)cc2)C(C#N)=C(N)O1 (stereo not given in full)" target_under_test="CAKI-1 renal" recorded_result=76
compound=O=C1Nc2c(ccc(Cl)c2Cl)/C1=C/c1cc(Br)c(O)c(Br)c1 target_under_test="CAKI-1 renal" recorded_result=46.8

----------
Listing of entries alongside the reported growth.
- Test system: PC-3 prostate
- assay.notes: NCI-60 one-dose screen, 48 h (100 = growth as untreated, 0 = no growth, -100 = all killed)
- experimental.setup: 10 µM unless noted
This is part of a sample that, as a whole, favours compounds with a hit. Of some 83,000 tested, about 20% had one in any assay.
measured.property: growth (%)

molecule=O=C1c2cc3c(cc2-c2c1c1cc(Cl)c(Cl)cc1c(=O)n2CCCn1ccnc1)OCO3 measured_property=growth recorded_result=25.3
molecule=COc1ccc(/C=C2\CN(C(=O)CCN3CCC(=NO)CC3)C/C(=C\c3ccc(OC)cc3)C2=O)cc1 measured_property=growth recorded_result=12.1
molecule=COc1cc(NCCCCN=C(N)N)c2ncccc2c1 measured_property=growth recorded_result=79.1
molecule=COc1cccc(-c2nc3sccn3c2-c2ccnc(NCCCNS(=O)(=O)c3ccccc3)c2)c1 measured_property=growth recorded_result=15.9
molecule=Cc1ccc2c(c1)O/C(=C\c1cccc(OCC(=O)c3ccccc3)c1)C2=O measured_property=growth recorded_result=358
molecule=C/C=C/C(N)=O measured_property=growth recorded_result=93.9
